# PROTOCOL SUMMARY: in vivo activity against experimental infection in mice caused by Trichomonas vaginalis (ED50, Therapeutical Index)
# CONDITION DETAILS: mouse, in vivo, po; ratio LD50/ED50, per os mice; read-out: Therapeutical Index (TI)
Rule: fulfilled for selectivity ratio not less than 200, not fulfilled for anything less.

compound=Cn1c(CCO)cnc1[N+](=O)[O-] assigned_class="not fulfilled"
compound="Cn1c(CO)cnc1[N+](=O)[O-] [drawing 3]" assigned_class="not fulfilled"
compound="COC(C)(C)c1cnc([N+](=O)[O-])n1C [Compound of formula V]" assigned_class="not fulfilled"
compound="Cn1c(C(C)(C)O)cnc1[N+](=O)[O-] [Compound A]" assigned_class=fulfilled
compound="CCc1cnc([N+](=O)[O-])n1C [reference compound]" assigned_class="not fulfilled"

----------
# PROTOCOL SUMMARY: in vivo activity against experimental infection in mice caused by Trichomonas vaginalis (ED50, Therapeutical Index)
# CONDITION DETAILS: mouse, in vivo, po; ratio LD50/ED50, per os mice; read-out: Therapeutical Index (TI)
Entries and their measured selectivity ratio follow.
RECORDED METRIC: selectivity ratio

molecule="CC(CO)c1cnc([N+](=O)[O-])n1C (centres unmarked) [drawing 6]" assay_value=38.8
molecule="CCCc1cnc([N+](=O)[O-])n1C [reference compound]" assay_value=21.6
molecule="CC(C)c1cnc([N+](=O)[O-])n1C [K, 5-isopropyl-1-methyl-2-nitroimidazole, reference compound]" assay_value=102
molecule="CC(O)Cc1cnc([N+](=O)[O-])n1C (centres unmarked) [drawing 5]" assay_value=39.4
molecule=Cc1cnc([N+](=O)[O-])n1C assay_value=23.4
